Catalogue of Ki values
measured on: Recombinant human JAK2 kinase domain protein (Residues 812-1132) (Homo sapiens)
Construct: human JAK2 kinase domain protein (Residues 812-1132)
Sequence (O60674 812-1132): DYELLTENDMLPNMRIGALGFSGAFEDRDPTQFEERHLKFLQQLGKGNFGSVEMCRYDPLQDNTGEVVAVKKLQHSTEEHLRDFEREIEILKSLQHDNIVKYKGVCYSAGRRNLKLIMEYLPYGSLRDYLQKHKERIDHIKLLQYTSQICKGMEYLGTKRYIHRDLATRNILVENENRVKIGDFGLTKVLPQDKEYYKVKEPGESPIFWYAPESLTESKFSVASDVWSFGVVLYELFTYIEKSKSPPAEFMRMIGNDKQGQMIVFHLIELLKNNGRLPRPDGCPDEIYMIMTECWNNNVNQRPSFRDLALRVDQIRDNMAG
test protocol: JAK2 biochemical assay (microfluidic mobility shift, peptide phosphorylation)
condition description: 25 μM ATP, 0.2 nM total JAK2; Ki calculated from Ki app (tight-binding, competitive); read-out: Biochem JAK2 Ki
# include the unit after the value

Worked examples, 3 compounds total:
CN1CC(N(C)CCn2nnnc2Cn2cc(NC(=O)c3cnn4cccnc34)c(-c3cc(OC(F)F)ccc3OC(F)F)n2)C1	0.65 nM
CNCCn1nnnc1Cn1cc(NC(=O)c2cnn3cccnc23)c(-c2cc(OC(F)F)ccc2OC(F)F)n1	0.15 nM
CN(C)CCn1nnnc1Cn1cc(NC(=O)c2cnn3cccnc23)c(-c2cc3c(cc2OC(F)F)NCCO3)n1	0.47 nM

Turning now to a further compound:
// assay Recombinant human JAK2 kinase domain protein (Residues 812-1132) (Homo sapiens), entry `O=C(Nc1cn(Cc2nnn(CCN3CCNCC3)n2)nc1-c1cc(Cl)ccc1OC(F)F)c1cnn2cccnc12` , Ki value = 0.68 nM

---

Test system: JAK1 (IL-13-stimulated STAT6 phosphorylation in BEAS-2B cells)
test protocol: P-STAT6 BEAS-2B+IL-13 cell assay
Type: cell-based, human
condition description: 1 hour compound, IL-13 15 minutes, IC50 by four-parameter fit, read-out: Cellular JAK1 PSTAT6 BEAS2B + IL13
readout: pIC50
# pIC50 is unitless: minus log10 of the molar concentration; print number only

Worked examples, 2 molecules total:
CN1CCC(N2CC(n3nnc(Cn4cc(NC(=O)c5cnn6cccnc56)c(-c5cc(OC(F)F)ccc5OC(F)F)n4)n3)C2)C1 (single isomer, unassigned)	7.37
CN(C)C1CCC(N2CC(n3nnc(Cn4cc(NC(=O)c5cnn6cccnc56)c(-c5cc(OC(F)F)ccc5OC(F)F)n4)n3)C2)C1 (single isomer, unassigned) [Example 76]	7.13

Kindly note the recorded pIC50 for CN(C)CC(F)CN1CC(n2nnc(Cn3cc(NC(=O)c4cnn5cccnc45)c(-c4cc(OC(F)F)ccc4OC(F)F)n3)n2)C1 (single isomer, unassigned) , which is 7.70

---

measured on: recombinant human JAK1 kinase domain protein (Residues 854-1154) (Homo sapiens, UniProt P23458)
Construct: human JAK1 kinase domain protein (Residues 854-1154)
Sequence (P23458 854-1154): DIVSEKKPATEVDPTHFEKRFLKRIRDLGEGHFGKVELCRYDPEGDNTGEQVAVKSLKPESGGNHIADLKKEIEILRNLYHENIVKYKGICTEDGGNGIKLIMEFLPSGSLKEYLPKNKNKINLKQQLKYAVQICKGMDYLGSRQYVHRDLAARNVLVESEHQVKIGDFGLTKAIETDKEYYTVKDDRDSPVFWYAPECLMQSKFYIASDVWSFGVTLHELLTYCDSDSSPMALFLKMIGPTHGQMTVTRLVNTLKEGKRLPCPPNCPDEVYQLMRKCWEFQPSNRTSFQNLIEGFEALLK
test protocol: JAK1 biochemical assay (microfluidic mobility shift, peptide phosphorylation)
condition description: 25 μM ATP, 1 nM total JAK1; Ki calculated from Ki app (tight-binding, competitive); read-out: Biochem JAK1 Ki
Catalogue of Ki values
Please reply with the bare figure in pM and do not write the unit itself.

Worked examples, 4 compounds total:
O=C(Nc1cn(Cc2nnn(C3CNC3)n2)nc1-c1cc(OC(F)F)ccc1OC(F)F)c1cnn2cccnc12 [Example 11]	390
O=C(Nc1cn(Cc2nnn(C3CCNC3)n2)nc1-c1cc(OC(F)F)ccc1OC(F)F)c1cnn2cccnc12 (single isomer, unassigned) [Example 28]	300
CN1CC(Cn2nnc(Cn3cc(NC(=O)c4cnn5cccnc45)c(-c4cc(OC(F)F)ccc4OC(F)F)n3)n2)C1 [Example 32]	720
CN1CCC[C@H]1CN1CC(n2nnc(Cn3cc(NC(=O)c4cnn5cccnc45)c(-c4cc(OC(F)F)ccc4OC(F)F)n3)n2)C1 (racemic) [Example 46, formic acid]	490

Kindly note the recorded Ki for CSc1ccc(OC(F)F)c(-c2nn(Cc3nnnn3CCN(C)C)cc2NC(=O)c2cnn3cccnc23)c1 [Example 41] , which is 320

---

measured on: recombinant human JAK1 kinase domain protein (Residues 854-1154) (Homo sapiens)
Construct: human JAK1 kinase domain protein (Residues 854-1154)
test protocol: JAK1 biochemical assay (microfluidic mobility shift, peptide phosphorylation)
condition description: 25 μM ATP, 1 nM total JAK1; Ki calculated from Ki app (tight-binding, competitive); read-out: Biochem JAK1 Ki
readout: pKi
# pKi is unitless: minus log10 of the molar concentration; print number only

Worked examples, 5 compounds total:
CNCCN1CC(n2nnc(Cn3cc(NC(=O)c4cnn5cccnc45)c(-c4cc(OC(F)F)ccc4OC(F)F)n3)n2)C1	9.40
O=C(Nc1cn(Cc2nnnn2CCN2CCOCC2)nc1-c1cc(Cl)ccc1OC(F)F)c1cnn2cccnc12	9.40
NCCn1nnnc1Cn1cc(NC(=O)c2cnn3cccnc23)c(-c2cc(OC(F)F)ccc2OC(F)F)n1	9.59
O=C(Nc1cn(Cc2nnn(C3CCNC3)n2)nc1-c1cc(OC(F)F)ccc1OC(F)F)c1cnn2cccnc12 (single isomer, unassigned) [Example 27]	9.46
O=C(Nc1cn(Cc2nnn(C3CCNCC3)n2)nc1-c1cc(OC(F)F)ccc1OC(F)F)c1cnn2cccnc12	9.29

Kindly note the recorded pKi for CN(C)CCN(C)C1CC(n2nnc(Cn3cc(NC(=O)c4cnn5cccnc45)c(-c4cc(OC(F)F)ccc4OC(F)F)n3)n2)C1 (single isomer, unassigned) [Example 82, formic acid] , which is 9.27

---

Catalogue of pKi values
measured on: Recombinant human JAK2 kinase domain protein (Residues 812-1132) (Homo sapiens)
Construct: human JAK2 kinase domain protein (Residues 812-1132)
test protocol: JAK2 biochemical assay (microfluidic mobility shift, peptide phosphorylation)
condition description: 25 μM ATP, 0.2 nM total JAK2; Ki calculated from Ki app (tight-binding, competitive); read-out: Biochem JAK2 Ki
# pKi is unitless: minus log10 of the molar concentration; print number only

CN(C)[C@H]1C[C@@H](N2CC(n3nnc(Cn4cc(NC(=O)c5cnn6cccnc56)c(-c5cc(OC(F)F)ccc5OC(F)F)n4)n3)C2)C1	8.96
O=C(Nc1cn(Cc2nnn(CCO)n2)nc1-c1cc(Cl)ccc1OC(F)F)c1cnn2cccnc12	10.05

Kindly note the recorded pKi for `CN(C)CCN1CC(n2nnc(Cn3cc(NC(=O)c4cnn5cccnc45)c(-c4cc(C5CC5)ccc4OC(F)F)n3)n2)C1` , which is 9.36

---

measured on: recombinant human JAK1 kinase domain protein (Residues 854-1154) (Homo sapiens)
Construct: human JAK1 kinase domain protein (Residues 854-1154)
test protocol: JAK1 biochemical assay (microfluidic mobility shift, peptide phosphorylation)
condition description: 25 μM ATP, 1 nM total JAK1; Ki calculated from Ki app (tight-binding, competitive); read-out: Biochem JAK1 Ki
readout: Ki (nM)
Please reply with the bare figure in nM and do not write the unit itself.

CN1CC(n2nnc(Cn3cc(NC(=O)c4cnn5cccnc45)c(-c4cc(OC(F)F)ccc4OC(F)F)n3)n2)C1 [Example 10]	0.33
CN(C)CCCN1CC(n2nnnc2Cn2cc(NC(=O)c3cnn4cccnc34)c(-c3cc(OC(F)F)ccc3OC(F)F)n2)C1 [Example 65]	0.41

Kindly note the recorded Ki for CN1CCC[C@H]1Cn1nnnc1Cn1cc(NC(=O)c2cnn3cccnc23)c(-c2cc(OC(F)F)ccc2OC(F)F)n1 (racemic) [Example 54] , which is 0.75

Kindly note the recorded Ki for CN(C)C1CCN(CCn2nnc(Cn3cc(NC(=O)c4cnn5cccnc45)c(-c4cc(OC(F)F)ccc4OC(F)F)n3)n2)CC1 [Example 59] , which is 1

Kindly note the recorded Ki for CN(C)C1CCN(CCn2nnnc2Cn2cc(NC(=O)c3cnn4cccnc34)c(-c3cc(OC(F)F)ccc3OC(F)F)n2)CC1 [Example 60] , which is 0.81

Kindly note the recorded Ki for NC1CCC(n2nnnc2Cn2cc(NC(=O)c3cnn4cccnc34)c(-c3cc(OC(F)F)ccc3OC(F)F)n2)CC1 (centres unmarked) [Example 69] , which is 0.75

Kindly note the recorded Ki for O=C(Nc1cn(Cc2nnnn2C2CCNCC2)nc1-c1cc(OC(F)F)ccc1OC(F)F)c1cnn2cccnc12 [Example 24] , which is 0.83

Kindly note the recorded Ki for CN(C)CCCN1CC(n2nnc(Cn3cc(NC(=O)c4cnn5cccnc45)c(-c4cc(C5CC5)ccc4OC(F)F)n3)n2)C1 [Example 57] , which is 0.71

Where these numbers come from: patent US12247032B2
